B1: Storkhead-box protein 2, residues 64 to 141; numbered along this chain, Q9P2F5 (parent)
chain: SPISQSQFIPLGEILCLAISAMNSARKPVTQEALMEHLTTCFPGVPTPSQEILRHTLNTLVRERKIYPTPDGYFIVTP

Variants of: B1
Experiment: abundance fitness (aPCA) (normalised: wild type 0, dead -1); higher = more abundant; growth selection in yeast, the domain comes from the species named
Conditions: Homo sapiens
Assign yes to entries whose abundance fitness meets or exceeds -0.05; assign no to the rest.

[
  {
    "residue.codes": "LPISQSQFIPLGEILCLAISAMNSARKPVTQEALMEHLTTCFPGVPTPSQEILRHTLNTLVRERKIYPTPDGYFIVTP",
    "cat": "no"
  },
  {
    "residue.codes": "SPISQSQFIPLGEILCLAISAMNSAVKPVTQEALMEHLTTCFPGVPTPSQEILRHTLNTLVRERKIYPTPDGYFIVTP",
    "cat": "no"
  },
  {
    "residue.codes": "SPISQSQFIPLGEILCLAISAMNSARKPVTQEALMEHLTTCFPGVPTPSQEICRHTLNTLVRERKIYPTPDGYFIVTP",
    "cat": "no"
  },
  {
    "residue.codes": "SPISQSQFIPLGEFLCLAISAMNSARKPVTQEALMEHLTTCFPGVPTPSQEILRHTLNTLVRERKIYPTPDGYFIVTP",
    "cat": "no"
  },
  {
    "residue.codes": "SPISQSQFIPLGEILCLAISQMNSARKPVTQEALMEHLTTCFPGVPTPSQEILRHTLNTLVRERKIYPTPDGYFIVTP",
    "cat": "yes"
  },
  {
    "residue.codes": "SPISQSQFIPLGEILCLAISAMNSARKPVTQEALMEHLTTCFPGVPTPSQEILRHTLNTMVRERKIYPTPDGYFIVTP",
    "cat": "no"
  },
  {
    "residue.codes": "SPISQSQFIPLGEYLCLAISAMNSARKPVTQEALMEHLTTCFPGVPTPSQEILRHTLNTLVRERKIYPTPDGYFIVTP",
    "cat": "no"
  },
  {
    "residue.codes": "SPSSQSQFIPLGEILCLAISAMNSARKPVTQEALMEHLTTCFPGVPTPSQEILRHTLNTLVRERKIYPTPDGYFIVTP",
    "cat": "yes"
  },
  {
    "residue.codes": "SPISQSQFIPLGEISCLAISAMNSARKPVTQEALMEHLTTCFPGVPTPSQEILRHTLNTLVRERKIYPTPDGYFIVTP",
    "cat": "no"
  },
  {
    "residue.codes": "SPISQSQFIPLGEILCLAISAMNSARKPFTQEALMEHLTTCFPGVPTPSQEILRHTLNTLVRERKIYPTPDGYFIVTP",
    "cat": "no"
  },
  {
    "residue.codes": "SPISQSQFIPLGEIGCLAISAMNSARKPVTQEALMEHLTTCFPGVPTPSQEILRHTLNTLVRERKIYPTPDGYFIVTP",
    "cat": "no"
  },
  {
    "residue.codes": "SPISQSQFIPLGEILCLAISAMNSARKPVTQEALMEHLTTCFPGVPTPSQEILRHTLNTLVRERKIYPTPDGYFYVTP",
    "cat": "yes"
  },
  {
    "residue.codes": "SPISQSQFIPLGEILCLAISAMNSARKPVTQEALMEHLTTCFPGVPTPSQEILRHTLNTLVRERKIYPTPDGLFIVTP",
    "cat": "yes"
  },
  {
    "residue.codes": "SPISQSQFIPLGEILCLAISAMNSARKPVTQEALMEHLTTCFPGVPTPSQEILRKTLNTLVRERKIYPTPDGYFIVTP",
    "cat": "yes"
  },
  {
    "residue.codes": "SPISQSQFIPLGEILCLAISAMNSARKPVTQEALMEHCTTCFPGVPTPSQEILRHTLNTLVRERKIYPTPDGYFIVTP",
    "cat": "no"
  },
  {
    "residue.codes": "SPISQSQFIPLGEILCLAISAMNSARKPVTQAALMEHLTTCFPGVPTPSQEILRHTLNTLVRERKIYPTPDGYFIVTP",
    "cat": "yes"
  },
  {
    "residue.codes": "SPISQSQFIPLGEILCLAISAMNSARKPVTQEALMEHLTTCFPGVPTPSQEILRHTLNTLVRERKIYPTPMGYFIVTP",
    "cat": "no"
  },
  {
    "residue.codes": "SPISQSQFIPLGEILCLAISAMNSARKPVTQEALMEHLTQCFPGVPTPSQEILRHTLNTLVRERKIYPTPDGYFIVTP",
    "cat": "yes"
  },
  {
    "residue.codes": "SPISQSQFIPLGEILCLAISAMNSARKPVTQEALMEHLTTCFPGVPTPSQEILRHTLNTLVRERKISPTPDGYFIVTP",
    "cat": "yes"
  },
  {
    "residue.codes": "SPISQSQFIPLGEILCLAISAMNEARKPVTQEALMEHLTTCFPGVPTPSQEILRHTLNTLVRERKIYPTPDGYFIVTP",
    "cat": "yes"
  },
  {
    "residue.codes": "SPISQSQFIPLGEILCLAISAMNSARKPVTQEALMEHLKTCFPGVPTPSQEILRHTLNTLVRERKIYPTPDGYFIVTP",
    "cat": "no"
  },
  {
    "residue.codes": "SPISQSQFIPLGEILCLAISAMNSARKPVTQEALMTHLTTCFPGVPTPSQEILRHTLNTLVRERKIYPTPDGYFIVTP",
    "cat": "yes"
  },
  {
    "residue.codes": "SPISQSQIIPLGEILCLAISAMNSARKPVTQEALMEHLTTCFPGVPTPSQEILRHTLNTLVRERKIYPTPDGYFIVTP",
    "cat": "yes"
  },
  {
    "residue.codes": "SPISQSQFIPLGEILCLAISAMNSARKPVTQEALMEHLTTCFPGVPTPSQEILRHTLNTLVRERKFYPTPDGYFIVTP",
    "cat": "no"
  },
  {
    "residue.codes": "SPISQSQFIPLGEILCLAISAMNSARKPVTQEALMEHLTTCFPGVPTPSQEILRHTLNTLVRERKIYPTPDTYFIVTP",
    "cat": "no"
  },
  {
    "residue.codes": "SPISQSQFIPLGEILCLAISAMNSARKPVTQEALMEHLTTCFPGVPGPSQEILRHTLNTLVRERKIYPTPDGYFIVTP",
    "cat": "no"
  },
  {
    "residue.codes": "SPISQSQFIPLGEILCLAISAMNSARKPVTQEALMEHDTTCFPGVPTPSQEILRHTLNTLVRERKIYPTPDGYFIVTP",
    "cat": "no"
  },
  {
    "residue.codes": "SEISQSQFIPLGEILCLAISAMNSARKPVTQEALMEHLTTCFPGVPTPSQEILRHTLNTLVRERKIYPTPDGYFIVTP",
    "cat": "no"
  },
  {
    "residue.codes": "SPISQSQFIPLGEILCLAISAMNSARKPVTQEALMEHLTTCFPGVPTPSQEILRHTLNTLVCERKIYPTPDGYFIVTP",
    "cat": "yes"
  },
  {
    "residue.codes": "SPISQSQFIPLGEILCLAISAMNSARKPVTQEALMEHLTTCFPRVPTPSQEILRHTLNTLVRERKIYPTPDGYFIVTP",
    "cat": "yes"
  },
  {
    "residue.codes": "SPISQSQFIPLGEILCLAISAMNSARKPVTQEALMEHLTTCFPGVPTPSQEILRHTLNTLVRSRKIYPTPDGYFIVTP",
    "cat": "yes"
  },
  {
    "residue.codes": "SPISQSQFIPLGEILCLAISAMNSARKPVTQEALMEHLETCFPGVPTPSQEILRHTLNTLVRERKIYPTPDGYFIVTP",
    "cat": "no"
  },
  {
    "residue.codes": "SPISQSQFIPLGEILCLAISAMNSARKPVTQEALMEHLTTCFPGVPTPSQEILRTTLNTLVRERKIYPTPDGYFIVTP",
    "cat": "yes"
  },
  {
    "residue.codes": "SPISQSQFIPLGEILCLAISAMNSARKPVTQEALMEHLTRCFPGVPTPSQEILRHTLNTLVRERKIYPTPDGYFIVTP",
    "cat": "yes"
  },
  {
    "residue.codes": "SPISQSQFIPLGEILCLAISAMNSARKPVTNEALMEHLTTCFPGVPTPSQEILRHTLNTLVRERKIYPTPDGYFIVTP",
    "cat": "yes"
  },
  {
    "residue.codes": "SPISQSQFIPLGEILCLAISAMNSARKPVTQEALMEHLTTCFPGVPTPSQEILRHTLNRLVRERKIYPTPDGYFIVTP",
    "cat": "yes"
  },
  {
    "residue.codes": "SPISQSQFIPLGEILCLAISAMPSARKPVTQEALMEHLTTCFPGVPTPSQEILRHTLNTLVRERKIYPTPDGYFIVTP",
    "cat": "no"
  },
  {
    "residue.codes": "SPISQSQFIPLGEILCLAISAMNSAMKPVTQEALMEHLTTCFPGVPTPSQEILRHTLNTLVRERKIYPTPDGYFIVTP",
    "cat": "no"
  },
  {
    "residue.codes": "SPISQSQFIPLGEILCLAISAMNSARKPVTQEALMEHLTTCFHGVPTPSQEILRHTLNTLVRERKIYPTPDGYFIVTP",
    "cat": "yes"
  },
  {
    "residue.codes": "SPISQSQFIPLGEILCLAISAMNSARKPVTSEALMEHLTTCFPGVPTPSQEILRHTLNTLVRERKIYPTPDGYFIVTP",
    "cat": "yes"
  },
  {
    "residue.codes": "SPISQSQFIPLGEILRLAISAMNSARKPVTQEALMEHLTTCFPGVPTPSQEILRHTLNTLVRERKIYPTPDGYFIVTP",
    "cat": "no"
  },
  {
    "residue.codes": "SPISQSQFIPLGEILCLAISAMNSARKPVTQEALMEHLTTCFPGVPTPSQEILRHTLNTLVRCRKIYPTPDGYFIVTP",
    "cat": "yes"
  },
  {
    "residue.codes": "SPISQSQFIPLGEILCLAISAMNSARKPVTQEALMEHLTTCFPGVPTPSQEILRHTLNTLVRERKIYPTPDGYFIVTN",
    "cat": "no"
  },
  {
    "residue.codes": "SPISQSQFIPLGEILCLAISAMNSARKPVTQEALMEHLTTCFPGVPTPSQEIVRHTLNTLVRERKIYPTPDGYFIVTP",
    "cat": "yes"
  }
]
